Data provenance: PubChem BioAssay AID1963439

Parameter pIC50: see the listing below.
# Tested on: NCI-H196 complex spheroids with HUVEC/MSC, growth % T/C
# method_notes: Anticancer human tumor NCI-H196 cell line growth inhibition [Asc];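 note: spheroids exposed to compound for 7 days before measurement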
# setup_conditions: curve of first compound; second compound 1 µM
# Source text: Multicellular complex tumor spheroid response to apoptosis pathway targeting inhibitors Alrizomadlin, Pelcitoclax, and Dasminapant in combination with a variety of drugs and investigational agents in selected tumor cell lines […] Compounds. […] If the clinical Cmax for an agent had not been determined, the highest concentration tested was 10 microM. […]
pIC50: −log10 of the molar value.

# example entries with known answers
Query: Could you share which pIC50 value was measured for NC(=O)C(=Cn1cnc(-c2cc(C(F)(F)F)cc(C(F)(F)F)c2)n1)c1cncnc1 + CNC(C)C(=O)NC1CN(S(=O)(=O)c2cccc(S(=O)(=O)N3CCC4CCC(C(=O)NC(c5ccccc5)c5ccccc5)N4C(=O)C(NC(=O)C(C)NC)C3)c2)CCC2CCC(C(=O)NC(c3ccccc3)c3ccccc3)N2C1=O ?
Result: > 9.02

Query: Could you share which pIC50 value was measured for CNC(C)C(=O)NC1CN(S(=O)(=O)c2cccc(S(=O)(=O)N3CCC4CCC(C(=O)NC(c5ccccc5)c5ccccc5)N4C(=O)C(NC(=O)C(C)NC)C3)c2)CCC2CCC(C(=O)NC(c3ccccc3)c3ccccc3)N2C1=O (stereo unspecified) + Cc1c(S(C)(=O)=O)c(-c2cc(F)cc(N3CCN(c4ccc(NS(=O)(=O)c5ccc(NC(CCN6CCC(C(=O)OCCCP(=O)(O)O)CC6)CSc6ccccc6)c(S(=O)(=O)C(F)(F)F)c5)cc4)CC3)c2)c(-c2ccc(Cl)cc2)n1C(C)C ?
Result: > 8.50

Query: Could you share which pIC50 value was measured for O=C(c1ccc(F)c(F)c1Nc1ccc(I)cc1F)N1CC(O)([C@@H]2CCCCN2)C1 + Cc1c(S(C)(=O)=O)c(-c2cc(F)cc(N3CCN(c4ccc(NS(=O)(=O)c5ccc(NC(CCN6CCC(C(=O)OCCCP(=O)(O)O)CC6)CSc6ccccc6)c(S(=O)(=O)C(F)(F)F)c5)cc4)CC3)c2)c(-c2ccc(Cl)cc2)n1C(C)C ?
Result: < 6.00

Query: Could you share which pIC50 value was measured for C=C(F)C(=O)N1CCN(c2nc(OCC3CCCN3C)nc3c2CCN(c2cccc4cccc(Cl)c24)C3)CC1CC#N (stereo unspecified) + Cc1c(S(C)(=O)=O)c(-c2cc(F)cc(N3CCN(c4ccc(NS(=O)(=O)c5ccc(NC(CCN6CCC(C(=O)OCCCP(=O)(O)O)CC6)CSc6ccccc6)c(S(=O)(=O)C(F)(F)F)c5)cc4)CC3)c2)c(-c2ccc(Cl)cc2)n1C(C)C ?
Result: 5.22

Query: Could you share which pIC50 value was measured for C=CC(=O)N1CCN(c2nc(=O)n(-c3c(C)ccnc3C(C)C)c3nc(-c4c(O)cccc4F)c(F)cc23)C(C)C1 (stereo unspecified) + Cc1c(S(C)(=O)=O)c(-c2cc(F)cc(N3CCN(c4ccc(NS(=O)(=O)c5ccc(NC(CCN6CCC(C(=O)OCCCP(=O)(O)O)CC6)CSc6ccccc6)c(S(=O)(=O)C(F)(F)F)c5)cc4)CC3)c2)c(-c2ccc(Cl)cc2)n1C(C)C ?
Result: < 5.00

Then this molecule:
Query: Could you share which pIC50 value was measured for O=C(c1cc(Cc2n[nH]c(=O)c3ccccc23)ccc1F)N1CCN(C(=O)C2CC2)CC1 + Cc1c(S(C)(=O)=O)c(-c2cc(F)cc(N3CCN(c4ccc(NS(=O)(=O)c5ccc(NC(CCN6CCC(C(=O)OCCCP(=O)(O)O)CC6)CSc6ccccc6)c(S(=O)(=O)C(F)(F)F)c5)cc4)CC3)c2)c(-c2ccc(Cl)cc2)n1C(C)C ?
Result: < 5.00

###

# Test system: NCI-H196 complex spheroids with HUVEC/MSC, growth % T/C
# method_notes: Anticancer human tumor NCI-H196 cell line growth inhibition [Asc];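 note: spheroids exposed to compound for 7 days before measurement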;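 for viability, T/C: 100% = DMSO vehicle control wells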
# setup_conditions: second compound 0.1 µM; first compound 0.3 µM; stronger effect = lower value
# Text: Multicellular complex tumor spheroid response to apoptosis pathway targeting inhibitors Alrizomadlin, Pelcitoclax, and Dasminapant in combination with a variety of drugs and investigational agents in selected tumor cell lines […] Compounds. […] If the clinical Cmax for an agent had not been determined, the highest concentration tested was 10 microM. […]
readout: viability, T/C

# example entries with known answers
Query: Could you share which viability, T/C value was measured for CCN1C(C(=O)NC23CCC(C(=O)O)(CC2)CC3)C(c2cccc(Cl)c2F)C2(C(=O)Nc3cc(Cl)ccc32)C12CCCCC2 (stereo not drawn) + CNC(C)C(=O)NC1CN(S(=O)(=O)c2cccc(S(=O)(=O)N3CCC4CCC(C(=O)NC(c5ccccc5)c5ccccc5)N4C(=O)C(NC(=O)C(C)NC)C3)c2)CCC2CCC(C(=O)NC(c3ccccc3)c3ccccc3)N2C1=O ?
Result: 3.11%

Query: Could you share which viability, T/C value was measured for Cc1nc(N2CCC3(CC2)COC(C)C3N)c(CO)nc1Sc1ccnc(N)c1Cl (stereo not drawn) + Cc1c(S(C)(=O)=O)c(-c2cc(F)cc(N3CCN(c4ccc(NS(=O)(=O)c5ccc(NC(CCN6CCC(C(=O)OCCCP(=O)(O)O)CC6)CSc6ccccc6)c(S(=O)(=O)C(F)(F)F)c5)cc4)CC3)c2)c(-c2ccc(Cl)cc2)n1C(C)C ?
Result: 87.8%

Further cases:
Query: Could you share which viability, T/C value was measured for NC(=O)C(=Cn1cnc(-c2cc(C(F)(F)F)cc(C(F)(F)F)c2)n1)c1cncnc1 + Cc1c(S(C)(=O)=O)c(-c2cc(F)cc(N3CCN(c4ccc(NS(=O)(=O)c5ccc(NC(CCN6CCC(C(=O)OCCCP(=O)(O)O)CC6)CSc6ccccc6)c(S(=O)(=O)C(F)(F)F)c5)cc4)CC3)c2)c(-c2ccc(Cl)cc2)n1C(C)C ?
Result: 1.47%

###

# System: NCI-H196 complex spheroids with HUVEC/MSC, growth % T/C
# method_notes: Anticancer human tumor NCI-H196 cell line growth inhibition [Asc]; active = viability on the fitted dose curve at most 10% of control; inactive = the rest;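 note: spheroids exposed to compound for 7 days before measurement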
# setup_conditions: second compound 0.1 µM; first compound 0.01 µM
Outcome (select one): active, inactive

Query: Any idea what this test logged for O=C(c1ccc(F)c(F)c1Nc1ccc(I)cc1F)N1CC(O)([C@@H]2CCCCN2)C1 + Cc1c(S(C)(=O)=O)c(-c2cc(F)cc(N3CCN(c4ccc(NS(=O)(=O)c5ccc(NC(CCN6CCC(C(=O)OCCCP(=O)(O)O)CC6)CSc6ccccc6)c(S(=O)(=O)C(F)(F)F)c5)cc4)CC3)c2)c(-c2ccc(Cl)cc2)n1C(C)C ?
Result: inactive

Query: Any idea what this test logged for CCN1CCN(Cc2ccc(Nc3ncc(F)c(-c4cc(F)c5nc(C)n(C(C)C)c5c4)n3)nc2)CC1 + Cc1c(S(C)(=O)=O)c(-c2cc(F)cc(N3CCN(c4ccc(NS(=O)(=O)c5ccc(NC(CCN6CCC(C(=O)OCCCP(=O)(O)O)CC6)CSc6ccccc6)c(S(=O)(=O)C(F)(F)F)c5)cc4)CC3)c2)c(-c2ccc(Cl)cc2)n1C(C)C ?
Result: inactive

Consider now this further compound.
Query: Any idea what this test logged for NC1CCC(NC2CC2c2ccccc2)CC1 (stereo unspecified) + Cc1c(S(C)(=O)=O)c(-c2cc(F)cc(N3CCN(c4ccc(NS(=O)(=O)c5ccc(NC(CCN6CCC(C(=O)OCCCP(=O)(O)O)CC6)CSc6ccccc6)c(S(=O)(=O)C(F)(F)F)c5)cc4)CC3)c2)c(-c2ccc(Cl)cc2)n1C(C)C ?
Result: inactive

###

# Test system: NCI-H196 complex spheroids with HUVEC/MSC, growth % T/C
# method_notes: Anticancer human tumor NCI-H196 cell line growth inhibition [Asc];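 note: spheroids exposed to compound for 7 days before measurement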
# setup_conditions: curve of first compound; second compound 10 µM
Parameter IC50: see the listing below.

# example entries with known answers
Query: Could you share which IC50 value was measured for NC(=O)C(=Cn1cnc(-c2cc(C(F)(F)F)cc(C(F)(F)F)c2)n1)c1cncnc1 + Cc1c(S(C)(=O)=O)c(-c2cc(F)cc(N3CCN(c4ccc(NS(=O)(=O)c5ccc(NC(CCN6CCC(C(=O)OCCCP(=O)(O)O)CC6)CSc6ccccc6)c(S(=O)(=O)C(F)(F)F)c5)cc4)CC3)c2)c(-c2ccc(Cl)cc2)n1C(C)C ?
Result: 14.7 nM

Query: Could you share which IC50 value was measured for CCN1CCN(Cc2ccc(Nc3ncc(F)c(-c4cc(F)c5nc(C)n(C(C)C)c5c4)n3)nc2)CC1 + Cc1c(S(C)(=O)=O)c(-c2cc(F)cc(N3CCN(c4ccc(NS(=O)(=O)c5ccc(NC(CCN6CCC(C(=O)OCCCP(=O)(O)O)CC6)CSc6ccccc6)c(S(=O)(=O)C(F)(F)F)c5)cc4)CC3)c2)c(-c2ccc(Cl)cc2)n1C(C)C ?
Result: > 1000 nM

Query: Could you share which IC50 value was measured for CNC(C)C(=O)NC1CN(S(=O)(=O)c2cccc(S(=O)(=O)N3CCC4CCC(C(=O)NC(c5ccccc5)c5ccccc5)N4C(=O)C(NC(=O)C(C)NC)C3)c2)CCC2CCC(C(=O)NC(c3ccccc3)c3ccccc3)N2C1=O (stereo unspecified) + Cc1c(S(C)(=O)=O)c(-c2cc(F)cc(N3CCN(c4ccc(NS(=O)(=O)c5ccc(NC(CCN6CCC(C(=O)OCCCP(=O)(O)O)CC6)CSc6ccccc6)c(S(=O)(=O)C(F)(F)F)c5)cc4)CC3)c2)c(-c2ccc(Cl)cc2)n1C(C)C ?
Result: < 3.16 nM

Query: Could you share which IC50 value was measured for C=CC(=O)N1CCN(c2nc(=O)n(-c3c(C)ccnc3C(C)C)c3nc(-c4c(O)cccc4F)c(F)cc23)C(C)C1 (stereo unspecified) + Cc1c(S(C)(=O)=O)c(-c2cc(F)cc(N3CCN(c4ccc(NS(=O)(=O)c5ccc(NC(CCN6CCC(C(=O)OCCCP(=O)(O)O)CC6)CSc6ccccc6)c(S(=O)(=O)C(F)(F)F)c5)cc4)CC3)c2)c(-c2ccc(Cl)cc2)n1C(C)C ?
Result: > 10000 nM

Further cases:
Query: Could you share which IC50 value was measured for C=C(F)C(=O)N1CCN(c2nc(OCC3CCCN3C)nc3c2CCN(c2cccc4cccc(Cl)c24)C3)CC1CC#N (stereo unspecified) + Cc1c(S(C)(=O)=O)c(-c2cc(F)cc(N3CCN(c4ccc(NS(=O)(=O)c5ccc(NC(CCN6CCC(C(=O)OCCCP(=O)(O)O)CC6)CSc6ccccc6)c(S(=O)(=O)C(F)(F)F)c5)cc4)CC3)c2)c(-c2ccc(Cl)cc2)n1C(C)C ?
Result: 4480 nM

Query: Could you share which IC50 value was measured for O=C(c1ccc(F)c(F)c1Nc1ccc(I)cc1F)N1CC(O)([C@@H]2CCCCN2)C1 + Cc1c(S(C)(=O)=O)c(-c2cc(F)cc(N3CCN(c4ccc(NS(=O)(=O)c5ccc(NC(CCN6CCC(C(=O)OCCCP(=O)(O)O)CC6)CSc6ccccc6)c(S(=O)(=O)C(F)(F)F)c5)cc4)CC3)c2)c(-c2ccc(Cl)cc2)n1C(C)C ?
Result: > 1000 nM
